Data provenance: PubChem BioAssay (NCI)

Tested on: SK-OV-3 ovarian
assay-method-text: NCI tumour cell line growth inhibition, 48 h
Measured TGI, listed per entry for reference.

These recorded examples may help you get a feel for the data.
                                   molecule  experimental_system  meas_value
0  C[C@H]1CCC/C=C/[C@@H]2C[C@H](OC3OC(CO)C(O)C(O)C3O)C[C@H]2[C@H](O)/C=C/C(=O)O1 (stereo not given in full)      SK-OV-3 ovarian    > 100 µM
1  COC(=O)Nc1cc(OCCCOC(C)=O)c2[nH]c(C(=O)OC)cc2c1C[C@H](O)CO      SK-OV-3 ovarian    > 100 µM
2     Cc1ccc(S(=O)(=O)Nc2ccccc2C(C)(C)C)cc1      SK-OV-3 ovarian     81.3 µM
3  Cc1nnc(SCc2nc(C#N)c(C#N)nc2CSc2nnc(C)s2)s1      SK-OV-3 ovarian   > 75.9 µM

// moving on: another record for TGI
What does the data say about its TGI? Entry: "Cc1ccc2ccc3c4ccccc4ccc3c2c1"
> 100 µM

====

Measured TGI, listed per entry for reference.
Tested on: K-562 leukemia
assay-method-text: NCI tumour cell line growth inhibition, 48 h

These recorded examples may help you get a feel for the data.
                                   compound  meas_value
0  O=C(O)CCCc1ccc2c(c1)C(C(=O)O)CC2 (stereo not drawn)    > 100 µM
1                     C1CN2CCO[SiH](O1)OCC2    > 100 µM
2                          C/C(CCN(C)C)=N/O     6.97 µM
3  Cc1cc(NC(=O)NC(=O)c2ccccc2NC(=O)CN(C)C)ccc1Oc1ncc(Br)cn1   > 57.8 µM
4  COc1cccc(/C=N/[N-]C(N)=O)c1[O-].[Cu+2].[OH3+]     45.2 µM

What does the data say about its TGI? Entry: "COCc1cc2c(s1)C(=O)C1=C(C2=O)C2(C=C(Br)C(=O)C(Br)=C2)CCN1"
9.32 µM

Would you kindly repeat that for CC(C)CNP(=O)(NCC(C)C)Oc1ccc(CC(NC(=O)OCc2ccccc2)C(=O)OCc2ccccc2)cc1 (stereo not drawn) ?
59.4 µM

Would you kindly repeat that for "Cc1nc(C(=Nc2ccc(Br)cc2)Nn2cnnc2)no1" ?
> 100 µM

Would you kindly repeat that for "CN(C)CCNC(=O)Nc1ccc(N(C)c2ccnc(Nc3ccc(CS(C)(=O)=O)cc3)n2)cc1" ?
> 25 µM

Would you kindly repeat that for "Oc1cn(-c2ccc(Cl)cc2)nc1-c1n[nH]c(=S)n1-c1ccc(F)cc1" ?
> 100 µM

Would you kindly repeat that for CCc1c(OC(C)=O)c2c(NC3OC(COC(C)=O)C(OC(C)=O)C(OC(C)=O)C3OC(C)=O)nc(SC)nc2oc1=O (stereo not drawn) ?
> 100 µM

Would you kindly repeat that for "COc1cccc2c(=O)oc(-c3ccccc3C)nc12" ?
> 100 µM

Would you kindly repeat that for CN(Cc1cnc2nc(N)nc(N)c2n1)c1ccc(C(=O)NC(CCC(=O)O)C(=O)O)c2ccccc12 (stereo not drawn) ?
> 1000 µM

Would you kindly repeat that for CC1=NC(=N)N=C(C)C1N=Nc1ccc2nc(C)[nH]c2c1 (stereo not drawn) ?
> 100 µM

Would you kindly repeat that for CCOC(=O)C1C(c2ccc(Br)cc2)N(Cc2ccccc2)C(c2ccc(Br)cc2)C(C(=O)OC)S1(=O)=O (stereo not drawn) ?
> 100 µM

Would you kindly repeat that for BrC1(c2ccccc2)C[n+]2c(-c3ccccc3)cc(-c3ccccc3)cc2-c2ccccc21 (stereo not drawn) ?
1.48 µM
